Values compiled from paper PMC10786919.

# Tested on: HCT116 cells
# assay summary: Lactate dehydrogenase (LDH) release assay
# Type: cell-based
Positions of bridges follow the written chain, without caps; N, C: chain ends. Non-standard residues stand in square brackets, D forms with d. Residues, ends and D or L forms follow the SMILES beside them. Lys(N3) = [N-]=[N+]=NCCCC[C@H](N)C(=O)O; R8 = C=CCCCCCC[C@@](C)(N)C(=O)O; Cba = N[C@@H](CC1CCC1)C(=O)O; S5 = C=CCCC[C@](C)(N)C(=O)O; βAla = NCCC(=O)O
Documented LDH: Cytotoxicity assay: % Effect across a set of molecules
Give just the number in %; leave the unit off.

{"molecule": "CC(=O)N[C@@H](CCCCN=[N+]=[N-])C(=O)NCCC(=O)N[C@@H](CC(C)C)C(=O)N[C@H](C(=O)N[C@@H](Cc1ccccc1)C(=O)N[C@]1(C)CCCCCCC=CCCC[C@@](C)(C(=O)N[C@@H](CO)C(=O)N[C@@H](C)C(=O)N[C@@H](C)C(N)=O)NC(=O)[C@H](CC2CCC2)NC(=O)[C@H](CCC(N)=O)NC(=O)[C@H](C)NC(=O)[C@H](Cc2c[nH]c3ccccc23)NC(=O)[C@H](Cc2ccccc2)NC(=O)[C@H](CCC(=O)O)NC1=O)[C@@H](C)O [MP-028] (Ac-[Lys(N3)][βAla]LTF[R8]EFWAQ[Cba][S5]SAA-NH2; staple 6-13)", "endpoint name": "LDH: Cytotoxicity assay: % Effect", "reported": 33.41}

Moving on to the next molecule.
Query LDH: Cytotoxicity assay: % Effect for CC(=O)N[C@@H](CCCCN=[N+]=[N-])C(=O)NCCC(=O)N[C@@H](CC(C)C)C(=O)N[C@H](C(=O)N[C@@H](Cc1ccccc1)C(=O)N[C@]1(C)CCCCCCC=CCCC[C@@](C)(C(=O)N[C@@H](CO)C(=O)N[C@@H](C)C(=O)N[C@@H](C)C(N)=O)NC(=O)[C@H](CC2CCC2)NC(=O)[C@H](C)NC(=O)[C@H](CCC(N)=O)NC(=O)[C@H](Cc2c[nH]c3ccccc23)NC(=O)[C@H](Cc2ccc(O)cc2)NC(=O)[C@H](CCC(=O)O)NC1=O)[C@@H](C)O [MP-4203] (Ac-[Lys(N3)][βAla]LTF[R8]EYWQA[Cba][S5]SAA-NH2; staple 6-13)
15.26

###

# Test system: Jump-In T-REx CHO-K1 BLA cells
# assay summary: cells
# Format: cell-based
# condition info: 0% FBS 4Hr; read-out: TETCHO: Counterscreen EC50
Positions of bridges follow the written chain, without caps; N, C: chain ends. Non-standard residues stand in square brackets, D forms with d. Residues, ends and D or L forms follow the SMILES beside them. Lys(N3) = [N-]=[N+]=NCCCC[C@H](N)C(=O)O; R8 = C=CCCCCCC[C@@](C)(N)C(=O)O; S5 = C=CCCC[C@](C)(N)C(=O)O; βAla = NCCC(=O)O
endpoint name: EC50

Query EC50 for CC(=O)N[C@@H](CCCCN=[N+]=[N-])C(=O)NCCC(=O)N[C@@H](CC(C)C)C(=O)N[C@H](C(=O)N[C@@H](CO)C(=O)N[C@]1(C)CCCCCCC=CCCC[C@@](C)(C(=O)N[C@@H](CO)C(=O)N[C@@H](C)C(=O)N[C@@H](C)C(N)=O)NC(=O)[C@H](CO)NC(=O)[C@H](CCC(N)=O)NC(=O)[C@H](C)NC(=O)[C@H](CO)NC(=O)[C@H](Cc2ccc(O)cc2)NC(=O)[C@H](CCC(=O)O)NC1=O)[C@@H](C)O [MP-3352] (Ac-[Lys(N3)][βAla]LTS[R8]EYSAQS[S5]SAA-NH2; staple 6-13)
> 50.6 µM
